System: Plasmodium falciparum
experimental-details: GSK_TCMDC: Inhibition of Plasmodium falciparum 3D7 in whole erythrocytes, using parasite LDH activity as an index of growth.
Type: functional, organism-based
experimental-context: Plasmodium falciparum, 3D7
Doc: threshold 700 nM (exclusive). Items with XC50 beneath it return Yes; others return No.

Solved cases below.
COc1ccc(CN(C)CCCOc2ccc(NC(=O)c3cccc4c(=O)c5cccc(C)c5[nH]c34)cc2)cc1OC; No
CCc1nc(N)nc(N)c1-c1ccc2c(c1)CCCC2; Yes
Cc1ccc(C(=O)N2CCc3cc4nccc(N5CCN6CCC[C@H]6C5)c4cc32)cc1; No
Cc1cc(N)cc2nc(-c3ccc(N)cc3)[nH]c12; No

Then this compound:
I'd appreciate it if you could check whether CN(C)C(=O)c1ccc(CN(Cc2cccc(OC(C)(C)C)c2)Cc2ccc3c(c2)OCCO3)cc1 has XC50 smaller than 700 nM. Yes

From: ChEMBL document CHEMBL1157539
